Target: UniProt:Q26801
Sequence (Q26801 1-437): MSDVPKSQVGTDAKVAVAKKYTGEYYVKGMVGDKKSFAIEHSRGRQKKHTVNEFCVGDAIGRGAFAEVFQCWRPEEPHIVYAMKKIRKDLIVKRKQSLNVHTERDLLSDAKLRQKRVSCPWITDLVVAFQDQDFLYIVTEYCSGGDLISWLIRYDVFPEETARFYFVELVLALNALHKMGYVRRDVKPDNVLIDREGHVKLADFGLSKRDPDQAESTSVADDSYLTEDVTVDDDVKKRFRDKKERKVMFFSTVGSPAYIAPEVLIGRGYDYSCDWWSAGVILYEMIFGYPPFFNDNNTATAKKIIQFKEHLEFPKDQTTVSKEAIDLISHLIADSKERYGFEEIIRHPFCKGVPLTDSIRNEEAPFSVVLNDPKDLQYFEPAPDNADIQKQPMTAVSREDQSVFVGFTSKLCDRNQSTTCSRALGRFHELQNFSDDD
property.measured: pIC50
A value of pIC50 is the negative decimal logarithm of a concentration given in moles per litre.

Dear colleague, I am looking for the recorded pIC50 of the following molecule: `CN[C@@H]1C[C@H]2O[C@@](C)([C@@H]1OC)n1c3ccccc3c3c4c(c5c6ccccc6n2c5c31)C(=O)NC4`
6.67

Values compiled from paper PMC2865264.
